assay: Selectivity index, ratio of Ki for HNE to Ki for NS4A-tethered single chain NS3 serine protease
Each record here notes measured Ratio Ki.
assay readout: Ratio Ki

molecule: CN(C1CC1)S(=O)(=O)CC1(NC(=O)N[C@H](C(=O)N2CC3C([C@H]2C(=O)N[C@@H](CCC2CC2)C(=O)C(=O)NC2CC2)C3(C)C)C(C)(C)C)CCCCC1 (single isomer, unassigned)
value: 2480
--
molecule: CC(C)(C)[C@H](NC(=O)NC1(C(=O)OCc2ccccc2)CCCCC1)C(=O)N1C[C@H]2[C@@H]([C@H]1C(=O)NC(CC1CC1)C(=O)C(N)=O)C2(C)C (stereo partly drawn)
value: 55
--
molecule: CCC[C@H](NC(=O)[C@@H]1[C@@H]2[C@H](CN1C(=O)[C@@H](NC(=O)NC1(CS(=O)(=O)N3CCOCC3)CCCCC1)C(C)(C)C)C2(C)C)C(=O)C(=O)NC1CC1
value: 135

* * *

assay: AUC (0 to 6 hrs) in dog at 2 mg/kg, po; assay type: ADME, organism-based, Canis lupus familiaris; set-up: time < 6 hr, dose 2 mg/kg, route oral; settings: plasma
Catalogue of AUC(0-t) at 6 h values

smiles: CCC[C@H](NC(=O)[C@@H]1[C@@H]2[C@H](CN1C(=O)[C@@H](NC(=O)NC1(CS(=O)(=O)N(C)C3CCC3)CCCCC1)C(C)(C)C)C2(C)C)C(=O)C(=O)NC1CC1
measurement units: nM·h
AUC(0-t) at 6 h: 200

smiles: CCC[C@H](NC(=O)[C@@H]1[C@@H]2[C@H](CN1C(=O)[C@@H](NC(=O)NC1(CS(=O)(=O)N3CCOCC3)CCCCC1)C(C)(C)C)C2(C)C)C(=O)C(=O)NC1CC1
measurement units: nM·h
AUC(0-t) at 6 h: 300

smiles: CCC[C@H](NC(=O)[C@@H]1[C@@H]2[C@H](CN1C(=O)[C@@H](NC(=O)NC1(CS(=O)(=O)N(C)CC)CCCCC1)C(C)(C)C)C2(C)C)C(=O)C(=O)NC1CC1
measurement units: nM·h
AUC(0-t) at 6 h: 500

* * *

assay: Inhibition of HCV NS4A-tethered single chain NS3 serine protease assessed as Ac-DTEDVVP(Nva)- O-PAP substrate hydrolysis by spectrophotometric assay; set-up: species or system Hepacivirus hominis
pKi: −log10 of the molar value.
assay readout: pKi

smiles: CCC[C@H](NC(=O)[C@@H]1[C@@H]2[C@H](CN1C(=O)[C@@H](NC(=O)NC1([C@H](C)S(=O)(=O)N(C)C)CCCCC1)C(C)(C)C)C2(C)C)C(=O)C(=O)NC1CC1
assay readout: pKi
value: 7.66
--
smiles: CN(C1CC1)S(=O)(=O)CC1(NC(=O)N[C@H](C(=O)N2C[C@H]3[C@@H]([C@H]2C(=O)N[C@@H](CC2CC2)C(=O)C(=O)NC2CC2)C3(C)C)C(C)(C)C)CCCCC1
assay readout: pKi
value: 7.82
--
smiles: CCC[C@H](NC(=O)[C@@H]1[C@@H]2[C@H](CN1C(=O)[C@@H](NC(=O)NC1(CS(=O)(=O)N(C(C)C)C3CC3)CCCCC1)C(C)(C)C)C2(C)C)C(=O)C(=O)NC1CC1
assay readout: pKi
value: 8.22

* * *

experiment: Selectivity index, ratio of Ki for HNE to Ki for NS4A-tethered single chain NS3 serine protease

smiles: CCC[C@H](NC(=O)[C@@H]1[C@@H]2[C@H](CN1C(=O)[C@@H](NC(=O)NC1([C@@H]3CCN(C)S3(=O)=O)CCCCC1)C(C)(C)C)C2(C)C)C(=O)C(=O)NC1CC1
Ratio Ki: 340
--
smiles: CCC[C@H](NC(=O)[C@@H]1[C@@H]2[C@H](CN1C(=O)[C@@H](NC(=O)NC1(CS(=O)(=O)N(C)C(C)C)CCCCC1)C(C)(C)C)C2(C)C)C(=O)C(=O)NC1CC1
Ratio Ki: 97
--
smiles: CCC[C@H](NC(=O)[C@@H]1[C@@H]2[C@H](CN1C(=O)[C@@H](NC(=O)NC1(CS(=O)(=O)N(C)CC)CCCCC1)C(C)(C)C)C2(C)C)C(=O)C(=O)NC1CC1
Ratio Ki: 64
--
smiles: CCC[C@H](NC(=O)[C@@H]1[C@@H]2[C@H](CN1C(=O)[C@@H](NC(=O)NC1(CS(=O)(=O)N(CC)C3CC3)CCCCC1)C(C)(C)C)C2(C)C)C(=O)C(=O)NC1CC1
Ratio Ki: 131
--
smiles: CCC[C@H](NC(=O)[C@@H]1[C@@H]2[C@H](CN1C(=O)[C@@H](NC(=O)NC1(CS(=O)(=O)N(C)C3CC3)CCCCC1)C(C)(C)C)C2(C)C)C(=O)C(=O)NC1CC1
Ratio Ki: 82
